# assay.details: Observed MRT (infinitive) in ICR mouse at 5 mg/kg, iv single dose measured upto 24 hrs
# Format: ADME, organism-based
# condition.notes: in vivo
observation.type: MRT inf (h)
Response body: numeric value in h, unit text excluded.

query: What value of MRT inf has been recorded for this entry: "C=CC(=O)Nc1ccc(C(=O)Nc2n[nH]c3ccc(-c4cncc(NC[C@@H](O)c5ccccc5)c4)cc23)cc1"
result: 10

---

# target.or.test.system: UniProt P50750
# Sequence (P50750 whole entry): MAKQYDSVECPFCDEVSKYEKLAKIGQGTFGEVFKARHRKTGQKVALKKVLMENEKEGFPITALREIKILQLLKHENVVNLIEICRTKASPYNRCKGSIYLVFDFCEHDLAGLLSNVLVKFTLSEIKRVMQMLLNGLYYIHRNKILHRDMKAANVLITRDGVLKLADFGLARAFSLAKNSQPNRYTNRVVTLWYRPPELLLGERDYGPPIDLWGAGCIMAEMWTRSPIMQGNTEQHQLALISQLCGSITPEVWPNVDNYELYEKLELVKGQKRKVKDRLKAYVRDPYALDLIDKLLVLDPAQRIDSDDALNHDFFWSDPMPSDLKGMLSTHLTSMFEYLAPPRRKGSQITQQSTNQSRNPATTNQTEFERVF
observation.type: pIC50
pIC50 is defined as minus the log10 of a concentration measured in mol/L.

query: Kindly state the measured pIC50 obtained for "C=CC(=O)Nc1ccc(C(=O)Nc2n[nH]c3ccc(-c4cncc(NC[C@@H](O)c5ccccc5)c4)cc23)cc1" with UniProt P50750.
result: 6.28

Origin of values: ChEMBL document CHEMBL5236590
